Catalogue of pKd values
- Experimental Target: T1, PUF4 RNA-binding domain (Saccharomyces cerevisiae, UniProt P25339 537-888)
- T1 sequence: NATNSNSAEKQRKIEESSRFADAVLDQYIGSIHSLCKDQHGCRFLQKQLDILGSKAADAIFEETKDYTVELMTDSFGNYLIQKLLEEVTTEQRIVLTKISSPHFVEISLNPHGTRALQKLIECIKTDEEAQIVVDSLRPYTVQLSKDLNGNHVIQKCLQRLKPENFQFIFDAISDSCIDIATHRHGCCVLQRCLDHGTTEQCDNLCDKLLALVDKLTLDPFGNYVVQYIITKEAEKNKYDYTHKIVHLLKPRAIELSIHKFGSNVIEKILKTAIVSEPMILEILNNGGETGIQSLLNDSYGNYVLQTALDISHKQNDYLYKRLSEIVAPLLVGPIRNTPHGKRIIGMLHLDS
- Protocol Text: Mg; RNA-MaP; 20 mM Na-HEPES pH 7.4, 30 mM KOAc, 0.75 mM MgCl2, 0.1% Tween-20, 5% glycerol, 0.1 mg/mL BSA, 2 mM DTT; 25 C; 0.0125-409.6 nM protein
- Run Conditions: tags: N-His6-TEV cleaved; C-SNAP kept, Cy3B-labelled; label: tethered on chip by stalled RNA polymerase
The scale used: pKd is minus the common logarithm of the concentration in molar units.

Some solved cases for reference:
Prompt: Any idea what pKd was measured for UCUCUUUGUCUCUCAUUAUUAUCUCUU (ssRNA) [Ie_S1_P5E.1_K5.1_C5.1_H5.1_[+3CTCTC]_A5.1_F5.1_T5.1] ?
Completion: 5.85

Prompt: Same question, UCUCUUUGUAAAAUGUCUCUU (ssRNA) [Ic_S1_P4E.1_K4.1_C4.1_H4.1_A4.1_[T5A]_[T7A]_F4.1_[A9G]_T4.1] this time
Completion: 7.57

# input for lookup
Prompt: Any idea what pKd was measured for Ib_S4_P3E.1_K3.1_C3.1_H3.1_[A4G]_A3.1_[A6T]_F3.1_T3.1 (ssRNA) RNA: UUUGACAACUGAUCGUUCUUUCUUGUGUUUAUUCUUUCUCGAUCAGUUGUCUUU ?
Completion: 7.03
